# EXPERIMENT_DESCRIPTION: physchem
# PARTICULARS: phosphate buffered saline, pH 7.4
Give solubility kinetic for every item shown.
Give your result in µM as a bare value.

Tell me the measured solubility kinetic of CNC(=NS(=O)(=O)c1ccc(Cl)cc1)N1CC(c2ccccc2)C(c2ccc(Cl)cc2)=N1 (stereo not drawn) [RAC-IBIPINABANT] , please.
2

Tell me the measured solubility kinetic of CC(C)(O)CN=C(NS(=O)(=O)c1ccc(Cl)cc1)N1CC(c2ccccc2)C(c2ccc(Cl)cc2)=N1 (configuration not stated) , please.
4

Tell me the measured solubility kinetic of CN(C)CCN1CCN(/C(=N\S(=O)(=O)c2ccc(Cl)cc2)N2CC(c3ccccc3)C(c3ccc(Cl)cc3)=N2)CC1 (configuration not stated) , please.
4

Tell me the measured solubility kinetic of O=S(=O)(N=C(NCCCCN1CCCC1)N1CC(c2ccccc2)C(c2ccc(Cl)cc2)=N1)c1ccc(Cl)cc1 (configuration not stated) , please.
11

Tell me the measured solubility kinetic of CN(C)CCCN/C(=N\S(=O)(=O)c1ccc(Cl)cc1)N1CC(c2ccccc2)C(c2ccc(Cl)cc2)=N1.Cl (configuration not stated) , please.
38

Tell me the measured solubility kinetic of CN1CCC(N/C(=N\S(=O)(=O)c2ccc(Cl)cc2)N2CC(c3ccccc3)C(c3ccc(Cl)cc3)=N2)CC1 (configuration not stated) , please.
11
